Protocol Notes: Acute toxicity in mice
Experimental Parameters: mouse, in vivo, ip, female mice, 14 days observation
Measured Endpoint: LD50 at 336 h (mg/kg)

CCCCn1c(C)c(C(=O)NC2CCN(CCc3ccccc3)CC2)c2cc(O)ccc21 [Example 2]    1470

* * *

Protocol Notes: Acute toxicity in rats
Experimental Parameters: rat, in vivo, ip, female rats, 14 days observation
Measured Endpoint: LD50 at 336 h (mg/kg)

CCCCn1c(C)c(C(=O)NC2CCN(CCc3ccccc3)CC2)c2cc(O)ccc21 [Example 2]    1930

* * *

Protocol Notes: Acute toxicity in mice
Experimental Parameters: mouse, in vivo, ip, male mice, 14 days observation
Measured Endpoint: LD50 at 336 h (mg/kg)

CCCCn1c(C)c(C(=O)NC2CCN(CCc3ccccc3)CC2)c2cc(O)ccc21    1430

* * *

Protocol Notes: Acute toxicity in mice
Experimental Parameters: mouse, in vivo, po, female mice, 14 days observation
Measured Endpoint: LD50 at 336 h

CCCCn1c(C)c(C(=O)NC2CCN(CCc3ccccc3)CC2)c2cc(O)ccc21    > 10400 mg/kg

* * *

Protocol Notes: Acute toxicity in rats
Experimental Parameters: rat, in vivo, ip, male rats, 14 days observation
Description: 3. Acute toxicity in mice and rats The acute toxicity of test compound No. 2 was evaluated in 120 male mice weighing 30-42 g and 120 female mice weighing 23-35 g, and in 56 male rats weighing 150-190 g and 56 female rats weighing 115-150 g by oral and intraperitoneal administration. […] LD50 values were calculated by probit method.
Measured Endpoint: LD50 at 336 h (mg/kg)

CCCCn1c(C)c(C(=O)NC2CCN(CCc3ccccc3)CC2)c2cc(O)ccc21    1940

* * *

Target System: 5-lipoxygenase (Cavia porcellus, UniProt A0A286X958)
Construct: Guinea pigs were anesthetized with ethyl ether, and the peripheral blood was collected in heparinized syringes; endogenous in cells; host or cells: guinea pig peripheral blood leukocytes (dextran sedimentation, erythrocytes lysed)
Sequence (A0A286X958 1-674): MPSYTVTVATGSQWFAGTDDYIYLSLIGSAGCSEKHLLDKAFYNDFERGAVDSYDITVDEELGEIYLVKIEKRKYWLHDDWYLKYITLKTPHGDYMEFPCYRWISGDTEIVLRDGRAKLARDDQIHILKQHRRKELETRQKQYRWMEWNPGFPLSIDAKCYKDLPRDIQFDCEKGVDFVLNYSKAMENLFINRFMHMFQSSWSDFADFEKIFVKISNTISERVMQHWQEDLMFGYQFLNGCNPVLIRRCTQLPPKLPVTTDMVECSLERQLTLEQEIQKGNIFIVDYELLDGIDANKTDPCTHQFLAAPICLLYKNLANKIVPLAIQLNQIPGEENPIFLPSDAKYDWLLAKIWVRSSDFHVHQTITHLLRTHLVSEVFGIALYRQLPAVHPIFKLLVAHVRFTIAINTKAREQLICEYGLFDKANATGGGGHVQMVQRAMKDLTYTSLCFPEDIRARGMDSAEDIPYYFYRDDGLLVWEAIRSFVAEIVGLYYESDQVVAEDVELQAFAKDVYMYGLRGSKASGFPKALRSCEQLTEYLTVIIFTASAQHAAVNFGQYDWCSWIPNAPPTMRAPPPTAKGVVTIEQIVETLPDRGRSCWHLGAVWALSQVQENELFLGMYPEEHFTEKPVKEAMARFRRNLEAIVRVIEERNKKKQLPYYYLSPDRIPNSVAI
Protocol Notes: 5-lipoxygenase inhibition (arachidonic acid induced chemiluminescence of peripheral leukocytes in guinea pigs)
Assay type: cell-based, guinea pig
Where a name gives a salt, the structure may show the parent alone.
# reported IC50; entries follow
Measured Endpoint: IC50 (nM)

CCCCn1c(C)c(C(=O)NC2CCN(CCOc3ccccc3)CC2)c2cc(O)ccc21    260
Cc1c(C(=O)NC2CCN(CCc3ccccc3)CC2)c2cc(O)ccc2n1Cc1ccccc1 [Example 4, hydrochloride]    850
Cc1c(C(=O)NC2CCN(CCc3ccccc3)CC2)c2cc(O)ccc2n1C1CCCCC1 [Example 12, hydrochloride hemihydrate]    1700
Cc1c(C(=O)NC2CCN(CCc3ccccc3)CC2)c2cc(O)ccc2n1CCc1ccccc1 [Example 16, hydrochloride]    1000
CCCCn1c(C)c(C(=O)NC2CCN(CCc3ccccc3)CC2)c2cc(O)ccc21    450
